Test system: Carnobacterium divergens
Assay: Ratio of Kcat to Km of Carnobacterium divergens BM4489 penicillinase Cad-1
Quantity: kcat/Km (M⁻¹ s⁻¹)
Enter your answer as a number in M⁻¹ s⁻¹; do not include the unit.

{"columns": ["Compound", "kcat/Km [M⁻¹ s⁻¹]"],
 "data": [
  ["CC1(C)S[C@@H]2[C@H](NC(=O)Cc3ccccc3)C(=O)N2[C@H]1C(=O)O [PENICILLIN G]", "6.6e+06"],
  ["O=C(Cc1cccs1)N[C@@H]1C(=O)N2C(C(=O)[O-])=C(C[n+]3ccccc3)CS[C@H]12", 22000],
  ["Cc1onc(-c2ccccc2)c1C(=O)N[C@@H]1C(=O)N2[C@@H]1SC(C)(C)[C@@H]2C(=O)O [OXACILLIN]", "2.95e+06"]
]}

Read the next record carefully.
[in] Observed kcat/Km on Carnobacterium divergens for CC1(C)S[C@@H]2[C@H](NC(=O)C(C(=O)O)c3ccccc3)C(=O)N2[C@H]1C(=O)O (some centres undefined) , please.
[out] 24000
